Cited source: patent US20220127350A1

# target-system: T1, human IL-17A (human, UniProt Q16552 24-155)
# T1 construct: Recombinant human IL-17A (Peprotech Cat. No. 200-17), disulfide-linked homodimer from E. coli; Biotinylated or RPE-labelled in some assays; also called hIL-17A; IL-17A-RPE (labelled)
# procedure-summary: competitive ELISA: IL-17RA coated, biotinylated IL-17A preincubated with scFv
observable: IC50 (ng/mL)
Report the value in ng/mL with no unit label.

Input: Return value of IC50 for input PRO571 (humanized anti-IL-17A scFv, CDR graft of 27-31-C04) (scFv, VL-linker-VH; also called 27-31-C04-sc01; 27_31_C04_sc01) scFv: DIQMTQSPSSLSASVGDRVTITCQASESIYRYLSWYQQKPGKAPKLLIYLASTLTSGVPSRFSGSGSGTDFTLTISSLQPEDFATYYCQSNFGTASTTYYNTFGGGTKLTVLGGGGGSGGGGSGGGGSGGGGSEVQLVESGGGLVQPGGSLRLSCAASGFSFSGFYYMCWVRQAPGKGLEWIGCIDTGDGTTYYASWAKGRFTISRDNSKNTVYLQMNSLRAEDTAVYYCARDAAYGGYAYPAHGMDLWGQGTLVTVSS , no commentary.
Output: 1.8
